assay: Solubility of model compounds in aqueous solutions of polymer D4.1 (mixed directly with polymeric solution; Table 4B); type: physicochemical; details: 20% (w/v) aqueous solution of diblock copolymer D4.1, aqueous with cosolvent or surfactant or cyclodextrin, thermodynamic from solid; D4.1 polymer concentration 20 w/v %, room temperature, duplicate
Assay Metric: log10 solubility at 24 h (log10 of the value in µg/mL)

* Cc1cc(C#N)cc(C)c1Oc1nc(Nc2ccc(C#N)cc2)nc(N)c1Br [TMC 125] | 2.94
* CC(=O)NC[C@H]1CN(c2ccc(N3Cc4cn(C)nc4C3)c(F)c2)C(=O)O1 | 2.28
* Cc1cc(C=CC#N)cc(C)c1Nc1ccnc(Nc2ccc(C#N)cc2)n1 | 2.64
* Cc1cc2c(cc1-c1cc(/C=C3\SC(=O)NC3=O)ccc1OC(F)(F)F)C(C)(C)CCC2(C)C | 2.76
* Nc1nc(Nc2ccc(S(N)(=O)=O)cc2)nn1C(=O)c1c(F)cccc1F | 4.14

All values here come from patent US20150086504A1.
